B1: DnaJ homolog subfamily C member 5, residues 16 to 77; numbered along this chain, Q9H3Z4 (parent)
chain: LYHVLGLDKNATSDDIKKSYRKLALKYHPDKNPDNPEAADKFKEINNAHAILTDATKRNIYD

Variants of: B1
Assay Overview: abundance fitness (aPCA) (normalised: wild type 0, dead -1); higher = more abundant; growth selection in yeast, the domain comes from the species named
Stated Conditions: Homo sapiens
Bucketed by reported abundance fitness, buckets being class 0: < -0.3; class 1: ≥ -0.3 and < -0.1; class 2: ≥ -0.1

Known results for variants:
K26C ... class 0
K41G ... class 0
K22F ... class 1

Q: Place this variant in its band: S13P
Ans: class 1

Q: Band for the recorded abundance fitness of K9P ?
Ans: class 1

Q: Which band does K41P fall in?
Ans: class 0

Q: // return the class label for H49A
Ans: class 2

Q: Which class does A24V fall in?
Ans: class 2

Q: Which abundance fitness band matches P29D ?
Ans: class 1
